As shown below, each of these molecules has a reported remaining activity at 10 µM value.
system-name: MAO-A (Homo sapiens)
Sequence (P21397 whole entry): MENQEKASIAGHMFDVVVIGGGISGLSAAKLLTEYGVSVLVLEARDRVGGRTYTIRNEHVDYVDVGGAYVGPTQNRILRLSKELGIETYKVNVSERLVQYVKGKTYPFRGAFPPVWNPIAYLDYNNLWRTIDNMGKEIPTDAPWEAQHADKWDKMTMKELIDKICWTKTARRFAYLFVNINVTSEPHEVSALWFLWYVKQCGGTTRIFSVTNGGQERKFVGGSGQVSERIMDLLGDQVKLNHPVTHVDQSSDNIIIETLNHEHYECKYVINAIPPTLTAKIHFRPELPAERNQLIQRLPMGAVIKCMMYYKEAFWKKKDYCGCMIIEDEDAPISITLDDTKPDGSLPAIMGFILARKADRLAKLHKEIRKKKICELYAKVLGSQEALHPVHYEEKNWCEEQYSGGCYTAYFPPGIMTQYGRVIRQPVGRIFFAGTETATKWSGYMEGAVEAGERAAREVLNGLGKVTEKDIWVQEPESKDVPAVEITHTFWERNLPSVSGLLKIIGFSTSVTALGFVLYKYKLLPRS
assay-summary: MAO-A inhibition assay (continuous, kynuramine)
settings: read-out: Residual activity at 10 µM (%) MAO-A
Record the value in %, omitting the unit from your answer.

Observe how each entry below is paired with its result.
input-smiles	system-name	unit	remaining activity at 10 µM
O=C1Nc2ccc(F)cc2/C1=N/NC(=O)c1ccccc1	MAO-A (Homo sapiens)	%	67.4
O=C1Nc2ccccc2/C1=N/NC(=O)c1ccc(Br)cc1	MAO-A (Homo sapiens)	%	50.8
O=C1Nc2ccc(Cl)cc2/C1=N/NC(=O)c1ccc(Br)cc1	MAO-A (Homo sapiens)	%	34.7
O=C1Nc2ccc(Cl)cc2/C1=N/NC(=O)c1ccc(Cl)cc1	MAO-A (Homo sapiens)	%	53.1

Inquiry: Which remaining activity at 10 µM reading was recorded for the molecule `O=C1Nc2ccc(Br)cc2/C1=N/NC(=O)c1ccccc1` ?
Reply text: 83.1

Inquiry: Which remaining activity at 10 µM reading was recorded for the molecule `O=C1Nc2ccc(Br)cc2/C1=N/NC(=O)c1ccc(Br)cc1` ?
Reply text: 29.5

Inquiry: Which remaining activity at 10 µM reading was recorded for the molecule `O=C1Nc2ccc(F)cc2/C1=N/NC(=O)c1ccc(Cl)cc1` ?
Reply text: 54.1
